system: retinal transcriptome of Abca4−/−Rdh8−/− mice; test: RNA-seq retinal transcriptome of pretreated, light-exposed Abca4−/−Rdh8−/− mice (differential expression, Pearson, GSEA); assay type: in vivo, mouse; conditions: of 44 gene sets up-regulated by light; mono doses BRM 1, MTP 10, TAM 2.5, DOX 10 mg/kg bw
Structures can show the parent of a compound that is named as a salt.
Experimental Readout: number of light-up-regulated gene sets significantly down-regulated (GSEA)

Challenge: Lab note: need number of light-up-regulated gene sets significantly down-regulated (GSEA) with retinal transcriptome of Abca4−/−Rdh8−/− mice for entry CCOc1ccccc1OCCN[C@H](C)Cc1ccc(OC)c(S(N)(=O)=O)c1.Cl [Tamsulosin] , please look it up.
Response given: 32 gene sets

Challenge: Lookup: number of light-up-regulated gene sets significantly down-regulated (GSEA) / retinal transcriptome of Abca4−/−Rdh8−/− mice / CC(C)C[C@H]1C(=O)N2CCC[C@H]2[C@]2(O)O[C@](NC(=O)[C@@H]3C=C4c5cccc6[nH]c(Br)c(c56)C[C@H]4N(C)C3)(C(C)C)C(=O)N12 [BRM, methanesulfonate salt]
Response given: 29 gene sets

Challenge: Fill in the recorded number of light-up-regulated gene sets significantly down-regulated (GSEA) for this compound, with retinal transcriptome of Abca4−/−Rdh8−/− mice as test system: COCCc1ccc(OCC(O)CNC(C)C)cc1 (stereo not shown) [MTP, metoprolol tartrate]
Response given: 36 gene sets

Challenge: Please provide the recorded number of light-up-regulated gene sets significantly down-regulated (GSEA) for COc1cc2nc(N3CCN(C(=O)C4COc5ccccc5O4)CC3)nc(N)c2cc1OC.CS(=O)(=O)O (stereo not shown) [Doxazosin] , tested on retinal transcriptome of Abca4−/−Rdh8−/− mice.
Response given: 28 gene sets

###

test system: Abca4−/−Rdh8−/− mice; experiment: Bright light-induced retinal degeneration in Abca4−/−Rdh8−/− mice, OCT imaging of retinal structure; assay type: in vivo, mouse; conditions: Table 14 (no protection, ONL ≤20 μm); subeffective doses BRM 0.1, MTP 1, TAM 0.05, DOX 1 mg/kg bw; OCT 7 days
Where a name gives a salt, the structure may show the parent alone.
Experimental Readout: Percent of mice with

Challenge: Can you share its Percent of mice with? I mean this compound: CC(C)C[C@H]1C(=O)N2CCC[C@H]2[C@]2(O)O[C@](NC(=O)[C@@H]3C=C4c5cccc6[nH]c(Br)c(c56)C[C@H]4N(C)C3)(C(C)C)C(=O)N12 [BRM, methanesulfonate salt]
Response given: 66.7% of mice

Challenge: If you can, please state the reported Percent of mice with value of COCCc1ccc(OCC(O)CNC(C)C)cc1 (stereo not shown) [MTP, metoprolol tartrate] .
Response given: 41.7% of mice

Challenge: Entry COc1cc2nc(N3CCN(C(=O)C4COc5ccccc5O4)CC3)nc(N)c2cc1OC.CS(=O)(=O)O (stereo not shown) : reported Percent of mice with = ?
Response given: 100% of mice

Challenge: Any idea what its Percent of mice with is? The compound is CCOc1ccccc1OCCN[C@H](C)Cc1ccc(OC)c(S(N)(=O)=O)c1.Cl
Response given: 58.3% of mice

###

test: Quantification of selected drugs in mouse serum and eye by LC-MS; format: in vivo, C57BL/6J WT mice; conditions: C57BL/6J, mouse, serum, intraperitoneal; 30 min after a single ip dose: DOX 10, GUB 2, SQ 0.5 mg per kilogram; read-out: Serum ± SD
Experimental Readout: concentration at 30 min (nM)
// units = nM; emit number, no label

Challenge: For the compound COc1cc2nc(N3CCN(C(=O)C4COc5ccccc5O4)CC3)nc(N)c2cc1OC.CS(=O)(=O)O (stereo not drawn) , what concentration at 30 min is on record?
Response given: 465

Challenge: GET /values?readout=concentration at 30 min&item= Nc1ncnc2c1ncn2C1CCCO1 (stereo not drawn)
Response given: 193

Challenge: Need concentration at 30 min, item N=C(N)N/N=C/c1c(Cl)cccc1Cl
Response given: 70

###

Give measured NES, TOLL-LIKE SIGNALING gene set for each item. Keep answers brief.
system: retinal transcriptome of Abca4−/−Rdh8−/− mice; assay: RNA-seq retinal transcriptome of pretreated, light-exposed Abca4−/−Rdh8−/− mice (differential expression, Pearson, GSEA); type: in vivo, mouse; conditions: GSEA, vehicle-treated light-exposed retinas against drug-treated
Counter-ions that a name gives are not always drawn.

Challenge: Return reported NES, TOLL-LIKE SIGNALING gene set; argument: COCCc1ccc(OCC(O)CNC(C)C)cc1 (stereo not shown) [MTP, metoprolol tartrate]
Response given: 2.05

Challenge: Endpoint output: NES, TOLL-LIKE SIGNALING gene set of CCOc1ccccc1OCCN[C@H](C)Cc1ccc(OC)c(S(N)(=O)=O)c1.Cl [Tamsulosin] . Value?
Response given: 1.83

Challenge: Entry COc1cc2nc(N3CCN(C(=O)C4COc5ccccc5O4)CC3)nc(N)c2cc1OC.CS(=O)(=O)O (stereo not shown) [Doxazosin] : reported NES, TOLL-LIKE SIGNALING gene set = ?
Response given: 1.99

Challenge: Item CC(C)C[C@H]1C(=O)N2CCC[C@H]2[C@]2(O)O[C@](NC(=O)[C@@H]3C=C4c5cccc6[nH]c(Br)c(c56)C[C@H]4N(C)C3)(C(C)C)C(=O)N12 [BRM, methanesulfonate salt] has what recorded NES, TOLL-LIKE SIGNALING gene set?
Response given: 2.20

###

system: Abca4−/−Rdh8−/− mice; experiment: Bright light-induced retinal degeneration in Abca4−/−Rdh8−/− mice, OCT imaging of retinal structure; assay type: in vivo, mouse; conditions: pretreatment before light 10,000 lux 30 min; OCT 7 days after light exposure
Experimental Readout: retinal / photoreceptor morphology by OCT imaging

CC(Oc1c(Cl)cccc1Cl)C1=NCCN1.Cl (stereo not shown): significantly prevented
Cl.N=C(N)NC(=O)Cc1c(Cl)cccc1Cl: significantly prevented

###

For each of the molecules below, state its NES, CHEMOKINE SIGNALING gene set.
tested on: retinal transcriptome of Abca4−/−Rdh8−/− mice; assay: RNA-seq retinal transcriptome of pretreated, light-exposed Abca4−/−Rdh8−/− mice (differential expression, Pearson, GSEA); assay type: in vivo, mouse; details: GSEA, vehicle-treated light-exposed retinas against drug-treated
Counter-ions that a name gives are not always drawn.
Please give only the number in your answer, with no unit.

Challenge: Could you tell me which NES, CHEMOKINE SIGNALING gene set is on file for COCCc1ccc(OCC(O)CNC(C)C)cc1 (stereo not shown) [MTP, metoprolol tartrate] ?
Response given: 1.44

Challenge: # query: NES, CHEMOKINE SIGNALING gene set of entry COc1cc2nc(N3CCN(C(=O)C4COc5ccccc5O4)CC3)nc(N)c2cc1OC.CS(=O)(=O)O (stereo not shown) [Doxazosin]
Response given: 1.41

Challenge: Fill blank: measured NES, CHEMOKINE SIGNALING gene set of the molecule CCOc1ccccc1OCCN[C@H](C)Cc1ccc(OC)c(S(N)(=O)=O)c1.Cl [Tamsulosin] is ____.
Response given: 1.39

Challenge: Consider the molecule CC(C)C[C@H]1C(=O)N2CCC[C@H]2[C@]2(O)O[C@](NC(=O)[C@@H]3C=C4c5cccc6[nH]c(Br)c(c56)C[C@H]4N(C)C3)(C(C)C)C(=O)N12 [BRM, methanesulfonate salt] and give its measured NES, CHEMOKINE SIGNALING gene set.
Response given: 1.67

###

tested on: Abca4−/−Rdh8−/− mice; assay: Bright light-induced retinal degeneration in Abca4−/−Rdh8−/− mice, OCT imaging of retinal structure; type: in vivo, mouse; settings: Table 14 (complete protection, ONL ≥50 μm); subeffective doses BRM 0.1, MTP 1, TAM 0.05, DOX 1 mg/kg bw; OCT 7 days
Where a name gives a salt, the structure may show the parent alone.
For each entry below, report its Percent of mice with value.

Challenge: # returns recorded Percent of mice with (system: Abca4−/−Rdh8−/− mice) for COCCc1ccc(OCC(O)CNC(C)C)cc1 (stereo not shown) [MTP, metoprolol tartrate]
Response given: 25% of mice

Challenge: # query: Percent of mice with | item CC(C)C[C@H]1C(=O)N2CCC[C@H]2[C@]2(O)O[C@](NC(=O)[C@@H]3C=C4c5cccc6[nH]c(Br)c(c56)C[C@H]4N(C)C3)(C(C)C)C(=O)N12 [BRM, methanesulfonate salt] | system: Abca4−/−Rdh8−/− mice
Response given: 16.7% of mice

Challenge: Write down the reported Percent of mice with of COc1cc2nc(N3CCN(C(=O)C4COc5ccccc5O4)CC3)nc(N)c2cc1OC.CS(=O)(=O)O (stereo not shown) [Doxazosin] , test system: Abca4−/−Rdh8−/− mice.
Response given: 0% of mice

Challenge: Percent of mice with of CCOc1ccccc1OCCN[C@H](C)Cc1ccc(OC)c(S(N)(=O)=O)c1.Cl [Tamsulosin] on Abca4−/−Rdh8−/− mice?
Response given: 16.7% of mice
